Tested on: NCI-H69 (Small Cell Lung Carcinoma);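 note: after 72 h of two-drug dosing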
procedure-details: Bliss excess, mean over the matrix (fraction); higher = more synergy
measure-name: Bliss excess

The examples below pair each entry with its known result.
• COc1cc2c(cc1OCCCCCOc1cc3c(cc1OC)C(=O)N1C=C(C)C[C@H]1C=N3)N=C[C@@H]1CC(C)=CN1C2=O [SG3199] + O=C(c1cc(Cc2n[nH]c(=O)c3ccccc23)ccc1F)N1CCN(C(=O)C2CC2)CC1 [Olaparib] (first compound max 0.001 µM, 7x7, partner max 10 µM) = -0.0136
• NC1(C(=O)N[C@@H](CCO)c2ccc(Cl)cc2)CCN(c2ncnc3[nH]ccc23)CC1 [Capivasertib] + CC(C)n1c(=O)n(C)c2cnc3cc(F)c(-c4ccc(OCCCN5CCCCC5)nc4)cc3c21 [AZD1390] (first compound max 10 µM, 7x7, partner max 0.3 µM) = -0.0793

Provide Bliss excess value for the following molecule: CN(CCO)CC[C@H](CSc1ccccc1)Nc1ccc(S(=O)(=O)NC(=O)c2ccc(N3CCC([C@@H](O)c4ccccc4-c4ccc(Cl)cc4)CC3)cc2)cc1S(=O)(=O)C(F)(F)F [AZD4320] + CCN(CCO)CCCOc1ccc2c(Nc3cc(CC(=O)Nc4cccc(F)c4)[nH]n3)ncnc2c1 [AZD2811] (first compound max 1 µM, 7x7, partner max 1 µM)
0.035

* * *

Test system: HMV-II (Melanoma)
procedure-details: combination Emax (second highest fraction inhibited in the dose matrix, 72 h); higher = more inhibition; extreme values may be limits of the assay
Where combination Emax equals or exceeds 0.5, the correct label is true; where it does not, the label is false.

• CC1(C)CCC(CN2CCN(c3ccc(C(=O)NS(=O)(=O)c4ccc(NCC5CCOCC5)c([N+](=O)[O-])c4)c(Oc4cnc5[nH]ccc5c4)c3)CC2)=C(c2ccc(Cl)cc2)C1 [Venetoclax] + CS(=O)(=O)CCNCc1ccc(-c2ccc3ncnc(Nc4ccc(OCc5cccc(F)c5)c(Cl)c4)c3c2)o1 [Lapatinib] (first compound max 1 µM, 7x7, partner max 10 µM) = true
• CN(CCO)CC[C@H](CSc1ccccc1)Nc1ccc(S(=O)(=O)NC(=O)c2ccc(N3CCC([C@@H](O)c4ccccc4-c4ccc(Cl)cc4)CC3)cc2)cc1S(=O)(=O)C(F)(F)F [AZD4320] + C[C@@H]1COCCN1C2=NC(=NC(=C2)C3(CC3)[S@](=N)(=O)C)C4=C5C=CNC5=NC=C4 [AZD6738] (first compound max 1 µM, 7x7, partner max 10 µM) = false

Kindly determine if combination Emax recorded for Cc1cc2ncnn2cc1Nc1ncc2c(n1)n(C1CCOCC1)c(=O)n2C [AZD7648] + CN(C)CCCOc1ccc(-c2ccc3ncc4c(c3c2)n(C2CCOCC2)c(=O)n4C)cn1 [AZD0156] (first compound max 10 µM, 7x7, partner max 1 µM) is above or exactly 0.5.
false

Kindly determine if combination Emax recorded for N#Cc1cnc(Nc2cc(NC[C@H]3CNCCO3)c(C(F)(F)F)cn2)cn1 [SRA737] + C=CCn1c(=O)c2cnc(Nc3ccc(N4CCN(C)CC4)cc3)nc2n1-c1cccc(C(C)(C)O)n1 [AZD1775] (first compound max 10 µM, partner max 1 µM) is above or exactly 0.5.
true

Kindly determine if combination Emax recorded for Cc1cc2ncnn2cc1Nc1ncc2c(n1)n(C1CCOCC1)c(=O)n2C [AZD7648] + COc1cc([C@@H]2c3cc4c(cc3[C@@H](O[C@@H]3O[C@@H]5CO[C@@H](C)O[C@H]5[C@H](O)[C@H]3O)[C@H]3COC(=O)[C@H]23)OCO4)cc(OC)c1O [Etoposide] (first compound max 10 µM, 7x7, partner max 10 µM) is above or exactly 0.5.
true
